Tested on: Escherichia coli TOP10
procedure.summary: shrunken log2 fold change of peptide-encoding DNA abundance (4.5 h post-induction vs induction); higher = less antimicrobial activity (less host growth inhibition)
cond: time post-induction: 4.5 h; library: site-saturation at positions 5, 18, 19, 20
shrunken log2 fold change overview
# print the numeric value only

Consider the reported shrunken log2 fold change for these sequences:
{"ordered.residues": "RRIRRRPPRLPRPRPRPHEMPRP", "assay.value": 0.489}
{"ordered.residues": "RRIRGRPPRLPRPRPRPYNMPRP", "assay.value": -0.531}
{"ordered.residues": "RRIRHRPPRLPRPRPRPVTIPRP", "assay.value": -0.311}
{"ordered.residues": "RRIRQRPPRLPRPRPRPMHCPRP", "assay.value": 0.0165}
{"ordered.residues": "RRIRDRPPRLPRPRPRPGVHPRP", "assay.value": -0.0373}
{"ordered.residues": "RRIRERPPRLPRPRPRPAFVPRP", "assay.value": 0.121}
{"ordered.residues": "RRIRFRPPRLPRPRPRPPSVPRP", "assay.value": 0.08}
{"ordered.residues": "RRIRWRPPRLPRPRPRPCMLPRP", "assay.value": -0.215}

Next sequence, please.
Q: Return reported shrunken log2 fold change; argument: RRIRTRPPRLPRPRPRPLAWPRP
A: 0.195

====

Test system: Escherichia coli TOP10
procedure.summary: shrunken log2 fold change of peptide-encoding DNA abundance (4.5 h post-induction vs induction); higher = less antimicrobial activity (less host growth inhibition)
cond: time post-induction: 4.5 h; library: site-saturation at positions 5, 18, 19, 20
endpoint: shrunken log2 fold change

{"ordered.residues": "RRIRPRPPRLPRPRPRPLSTPRP", "shrunken log2 fold change": -0.0907}
{"ordered.residues": "RRIRTRPPRLPRPRPRPNPAPRP", "shrunken log2 fold change": 0.147}

Q: I am curious: what shrunken log2 fold change value has been reported for RRIRRRPPRLPRPRPRPWWYPRP ?
A: -0.303

Q: Entry RRIRVRPPRLPRPRPRPWIAPRP please
A: 0.201

Q: Again, but for RRIRTRPPRLPRPRPRPCMPPRP
A: -0.143

Q: Could you do the same for RRIRLRPPRLPRPRPRPGHQPRP , please?
A: 0.122

Q: Further, for RRIRWRPPRLPRPRPRPVVPPRP ?
A: 0.242

Q: Now consider RRIRKRPPRLPRPRPRPQWDPRP and answer again.
A: 0.00929

====

Test system: Escherichia coli TOP10
procedure.summary: shrunken log2 fold change of peptide-encoding DNA abundance (4.5 h post-induction vs induction); higher = less antimicrobial activity (less host growth inhibition)
cond: time post-induction: 4.5 h; library: site-saturation at positions 5, 18, 19, 20
endpoint: shrunken log2 fold change
Form field (numeric): enter value without unit.

Below, each entry is followed by its recorded shrunken log2 fold change result.
{"ordered.residues": "RRIRTRPPRLPRPRPRPRCLPRP", "shrunken log2 fold change": -0.0645}
{"ordered.residues": "RRIRGRPPRLPRPRPRPDQAPRP", "shrunken log2 fold change": 0.925}

Q: Using the record for RRIRMRPPRLPRPRPRPNSDPRP , report its shrunken log2 fold change.
A: 0.0685

Q: How about RRIRIRPPRLPRPRPRPSKWPRP ?
A: -0.539

Q: Please answer likewise for RRIRRRPPRLPRPRPRPKEHPRP
A: 0.345

Q: Would you kindly repeat that for RRIRERPPRLPRPRPRPVAQPRP ?
A: -0.201

Q: Another sequence: RRIRGRPPRLPRPRPRPDHDPRP
A: 0.301

Q: And the next one, RRIRQRPPRLPRPRPRPEKWPRP ?
A: -0.191

====

Test system: Escherichia coli TOP10
procedure.summary: shrunken log2 fold change of peptide-encoding DNA abundance (4.5 h post-induction vs induction); higher = less antimicrobial activity (less host growth inhibition)
cond: time post-induction: 4.5 h; library: site-saturation at positions 5, 18, 19, 20
Hi, to clarify the labels: true (1) covers shrunken log2 fold change from -0.06 upward, false (0) covers anything below -0.06.

Solved cases below.
{"ordered.residues": "RRIRVRPPRLPRPRPRPCVPPRP", "category": "true (1)"}
{"ordered.residues": "RRIRARPPRLPRPRPRPVAQPRP", "category": "true (1)"}
{"ordered.residues": "RRIRKRPPRLPRPRPRPIFNPRP", "category": "true (1)"}
{"ordered.residues": "RRIRHRPPRLPRPRPRPFPDPRP", "category": "true (1)"}
{"ordered.residues": "RRIRKRPPRLPRPRPRPRWVPRP", "category": "true (1)"}

Now examine the next entry.
Q: Test whether the sequence RRIRARPPRLPRPRPRPQLLPRP records shrunken log2 fold change of -0.06 or higher.
A: true (1)

====

Test system: Escherichia coli TOP10
procedure.summary: shrunken log2 fold change of peptide-encoding DNA abundance (4.5 h post-induction vs induction); higher = less antimicrobial activity (less host growth inhibition)
cond: time post-induction: 4.5 h; library: site-saturation at positions 5, 18, 19, 20
Here, each record is paired with measured shrunken log2 fold change data.
Please give the numeric answer without any surrounding text.

{"ordered.residues": "RRIRCRPPRLPRPRPRPYVTPRP", "shrunken log2 fold change": -0.893}
{"ordered.residues": "RRIRERPPRLPRPRPRPCNIPRP", "shrunken log2 fold change": -0.0405}
{"ordered.residues": "RRIRMRPPRLPRPRPRPNHCPRP", "shrunken log2 fold change": 0.0039}
{"ordered.residues": "RRIRSRPPRLPRPRPRPPSMPRP", "shrunken log2 fold change": 0.13}
{"ordered.residues": "RRIRDRPPRLPRPRPRPRHPPRP", "shrunken log2 fold change": 0.0563}
{"ordered.residues": "RRIRTRPPRLPRPRPRPTEAPRP", "shrunken log2 fold change": 0.0502}

Q: So what does the record say about shrunken log2 fold change for RRIRQRPPRLPRPRPRPGCNPRP ?
A: -0.0136

Q: Would you kindly repeat that for RRIRFRPPRLPRPRPRPHTPPRP ?
A: 1.24

Q: Cool, now RRIRCRPPRLPRPRPRPVRFPRP
A: 0.262

Q: Same thing, different sequence: RRIRSRPPRLPRPRPRPDNVPRP
A: 4.24

Q: Input RRIRQRPPRLPRPRPRPPPQPRP
A: 0.712

Q: Okay, and RRIRIRPPRLPRPRPRPLWTPRP ?
A: -0.339

Q: Would you mind doing RRIRCRPPRLPRPRPRPVSTPRP as well?
A: -0.104

Q: Then RRIRFRPPRLPRPRPRPHPCPRP ?
A: -0.231

Q: Also check RRIRYRPPRLPRPRPRPKTKPRP
A: -0.295

Q: Check RRIRMRPPRLPRPRPRPKYHPRP too.
A: -0.488

Q: Also RRIRKRPPRLPRPRPRPVEAPRP ?
A: 0.657

Q: Also check RRIRPRPPRLPRPRPRPDCHPRP
A: -0.204

====

Tested on: Escherichia coli TOP10;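 also: peptides expressed intracellularly from a pBAD plasmid library in pooled LB shake-flask culture, induced with 0.3% L-arabinose, DNA abundance read by NGS, three biological replicates, DESeq2 with apeglm shrinkage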
procedure.summary: shrunken log2 fold change of peptide-encoding DNA abundance (4.5 h post-induction vs induction); higher = less antimicrobial activity (less host growth inhibition)
cond: time post-induction: 4.5 h; library: site-saturation at positions 5, 18, 19, 20
endpoint: shrunken log2 fold change

{"ordered.residues": "RRIRARPPRLPRPRPRPVEDPRP", "shrunken log2 fold change": 0.0532}
{"ordered.residues": "RRIRHRPPRLPRPRPRPWDDPRP", "shrunken log2 fold change": -0.0102}
{"ordered.residues": "RRIRDRPPRLPRPRPRPTRIPRP", "shrunken log2 fold change": 0.0348}
{"ordered.residues": "RRIRPRPPRLPRPRPRPMWLPRP", "shrunken log2 fold change": 0.217}
{"ordered.residues": "RRIRRRPPRLPRPRPRPEMQPRP", "shrunken log2 fold change": 0.114}
{"ordered.residues": "RRIRHRPPRLPRPRPRPDTNPRP", "shrunken log2 fold change": 0.102}
{"ordered.residues": "RRIRHRPPRLPRPRPRPPEHPRP", "shrunken log2 fold change": -0.116}
{"ordered.residues": "RRIRCRPPRLPRPRPRPDIKPRP", "shrunken log2 fold change": -0.336}
{"ordered.residues": "RRIRKRPPRLPRPRPRPKWGPRP", "shrunken log2 fold change": 0.594}
{"ordered.residues": "RRIRWRPPRLPRPRPRPQEEPRP", "shrunken log2 fold change": 0.0983}

Q: Query: shrunken log2 fold change; subject: RRIRLRPPRLPRPRPRPMYQPRP
A: -0.29

Q: What about RRIRQRPPRLPRPRPRPLCCPRP ?
A: -0.382

Q: For RRIRIRPPRLPRPRPRPKWRPRP then?
A: 0.188

Q: Next record, please: RRIRERPPRLPRPRPRPAEPPRP
A: -0.000777

Q: Subsequent entry: RRIRCRPPRLPRPRPRPRNHPRP
A: -0.0709

Q: Lookup RRIRPRPPRLPRPRPRPMGFPRP
A: -0.0125

Q: Do the same for RRIRIRPPRLPRPRPRPVITPRP please
A: -0.553

Q: Consider next the sequence RRIRYRPPRLPRPRPRPPDVPRP in the same way.
A: -0.0764

Q: Would you mind doing RRIRTRPPRLPRPRPRPSRKPRP as well?
A: 0.0182

Q: Same read-out for RRIRFRPPRLPRPRPRPWKCPRP ?
A: 0.0039

Q: Param item: RRIRARPPRLPRPRPRPSFHPRP
A: -0.215

Q: Now give it for RRIRHRPPRLPRPRPRPEKPPRP too.
A: -0.01
